All values here come from patent US20250275959A1.

# STUDY_TARGET: UniProtKB Q9ULC5
# EXPERIMENT_SUMMARY: Human ACSL5 coupled enzyme Amplex Red assay
# Format: biochemical
# MEASUREMENT_CONTEXT: read-out: hACSL5 IC50
# Sequence (Q9ULC5 33-683): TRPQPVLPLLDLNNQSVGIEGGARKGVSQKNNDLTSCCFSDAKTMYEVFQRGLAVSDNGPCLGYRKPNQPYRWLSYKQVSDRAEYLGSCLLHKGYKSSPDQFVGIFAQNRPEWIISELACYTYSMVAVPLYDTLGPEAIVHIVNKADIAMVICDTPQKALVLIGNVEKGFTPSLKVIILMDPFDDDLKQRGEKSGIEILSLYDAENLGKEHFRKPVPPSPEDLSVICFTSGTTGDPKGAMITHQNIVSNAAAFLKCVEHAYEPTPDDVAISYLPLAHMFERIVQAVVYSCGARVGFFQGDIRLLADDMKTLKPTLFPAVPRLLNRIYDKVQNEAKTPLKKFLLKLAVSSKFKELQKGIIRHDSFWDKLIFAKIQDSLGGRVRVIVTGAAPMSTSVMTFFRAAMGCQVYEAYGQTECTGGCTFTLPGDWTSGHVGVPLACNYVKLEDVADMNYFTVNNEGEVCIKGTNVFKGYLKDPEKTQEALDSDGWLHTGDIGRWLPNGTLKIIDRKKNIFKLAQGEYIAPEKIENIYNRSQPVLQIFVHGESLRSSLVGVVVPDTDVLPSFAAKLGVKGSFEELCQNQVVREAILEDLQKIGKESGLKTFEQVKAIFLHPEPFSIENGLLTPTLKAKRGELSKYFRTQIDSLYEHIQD
pIC50: −log10 of the molar value.
Item-by-item account of pIC50

Sample answers from the record:
>  <MOLECULE>
CC[C@@H](Oc1ccc(C(=O)NS(=O)(=O)c2ccc(OCCN(C)C)cc2)c(F)c1F)c1ccc(OCC2CC2)cn1 [Compound B]

>  <STUDY_TARGET>
UniProtKB Q9ULC5

>  <TEST_RESULT>
> 7.00

$$$$
>  <MOLECULE>
CC[C@@H](Oc1ccc(C(=O)NS(=O)(=O)c2ccc(O[C@H]3CCCN(C)C3)cc2)c(F)c1F)c1ccc(OCC2CC2)cn1

>  <STUDY_TARGET>
UniProtKB Q9ULC5

>  <TEST_RESULT>
> 7.00

$$$$
>  <MOLECULE>
CC(Oc1ccc(C(=O)NS(=O)(=O)c2ccc(CN)cc2)c(F)c1F)c1cccc(Oc2ccccc2)c1 (stereo not shown)

>  <STUDY_TARGET>
UniProtKB Q9ULC5

>  <TEST_RESULT>
> 7.00

$$$$
>  <MOLECULE>
CC[C@@H](Oc1ccc(C(=O)NS(=O)(=O)N2CC3(CC(OCCN4CCCC4)C3)C2)c(F)c1F)c1ccc(OCC2CC2)cn1

>  <STUDY_TARGET>
UniProtKB Q9ULC5

>  <TEST_RESULT>
> 7.00

$$$$

Incoming: Write down pIC50 measured for item NCc1ccc(S(=O)(=O)NC(=O)c2ccc(OCc3ccc(Oc4ccccc4)cc3)c(F)c2F)cc1
Outgoing: < 6.30

Incoming: Write down pIC50 measured for item CC(COc1ccc(C(=O)NS(=O)(=O)c2ccc(CN)cc2)c(Cl)c1Cl)c1cccc(Oc2ccccc2)c1 (stereo not shown)
Outgoing: 6.30 to 7.00

Incoming: Write down pIC50 measured for item CC[C@@H](Oc1ccc(C(=O)NS(=O)(=O)N2CC(OC3CCN(C)CC3)C2)c(F)c1F)c1ccc(OCC2CC2)cn1
Outgoing: 6.30 to 7.00

----------
# STUDY_TARGET: hACSL5 (Homo sapiens (Human))
# EXPERIMENT_SUMMARY: Human ACSL5 coupled enzyme Amplex Red assay
# Assay type: biochemical
# MEASUREMENT_CONTEXT: read-out: hACSL5 IC50
pIC50: −log10 of the molar value.
Item-by-item account of pIC50

Sample answers from the record:
>  <COMPOUND>
CC[C@@H](Oc1ccc(C(=O)NS(=O)(=O)N2CCN(C)CC2)c(F)c1F)c1ccc(OC2CC(OC(F)F)C2)cn1 (stereo partly drawn)

>  <pIC50>
6.30 to 7.00

$$$$
>  <COMPOUND>
CC[C@@H](Oc1ccc(C(=O)NS(=O)(=O)N2CCC(OC3CCN(CCOC)CC3)CC2)c(F)c1F)c1ccc(OCC2CC2)cn1

>  <pIC50>
> 7.00

$$$$
>  <COMPOUND>
CC[C@@H](Oc1ccc(C(=O)NS(=O)(=O)c2ccc(OC3CCCN(C)C3)cc2)c(F)c1F)c1ccc(Oc2ccccn2)cn1 (stereo partly drawn)

>  <pIC50>
> 7.00

$$$$
>  <COMPOUND>
CC[C@@H](Oc1ccc(C(=O)NS(=O)(=O)N2CCN(CC(C)(C)F)CC2)c(F)c1F)c1ccc(OCC2CC2)cn1

>  <pIC50>
> 7.00

$$$$

Incoming: Write down pIC50 measured for item CC(Oc1ccc(C(=O)NS(=O)(=O)N2CCN(C)CC2)c(Cl)c1Cl)c1cccc(Oc2ccccc2)c1 (racemic)
Outgoing: > 7.00

Incoming: Write down pIC50 measured for item CNCc1ccc(S(=O)(=O)NC(=O)c2ccc(OCc3cccc(Oc4ccccc4)c3)c(F)c2F)cc1
Outgoing: > 7.00

Incoming: Write down pIC50 measured for item CC[C@@H](Oc1ccc(C(=O)NS(=O)(=O)N2CCN(C)CC2)c(F)c1F)c1cc(OCC2CC2)ccn1
Outgoing: 6.30 to 7.00

Incoming: Write down pIC50 measured for item CC[C@@H](Oc1ccc(C(=O)NS(=O)(=O)c2ccc(OCCNC3CC3)cc2)c(F)c1F)c1ccc(OCC2CC2)cn1
Outgoing: > 7.00

Incoming: Write down pIC50 measured for item NCc1ccc(S(=O)(=O)NC(=O)c2ccc(OCc3cccc(Oc4ccccc4)c3)c(Cl)c2Cl)cc1
Outgoing: > 7.00

Incoming: Write down pIC50 measured for item CC[C@@H](Oc1ccc(C(=O)NS(=O)(=O)N2CCN(CC(C)(C)O)CC2)c(F)c1F)c1ccc(OCC2CC2)cn1
Outgoing: > 7.00

----------
# STUDY_TARGET: hACSL5 (Homo sapiens (Human), UniProt Q9ULC5)
# EXPERIMENT_SUMMARY: Human ACSL5 coupled enzyme Amplex Red assay
# Format: biochemical
# MEASUREMENT_CONTEXT: read-out: hACSL5 IC50
pIC50: −log10 of the molar value.
ATTRIBUTE_MEASURED: pIC50

>  <COMPOUND>
CC[C@@H](Oc1ccc(C(=O)NS(=O)(=O)c2ccc(OC3CCCN(C)C3)cc2)c(F)c1F)c1ccc(OCC2CC2)cn1 (stereo partly shown)

>  <pIC50>
> 7.00

$$$$
>  <COMPOUND>
CC(Oc1ccc(C(=O)NS(=O)(=O)CCCN2CCOCC2)cc1C(F)(F)F)c1ccc(Oc2cccnn2)cn1 (stereo not shown)

>  <pIC50>
6.30 to 7.00

$$$$
>  <COMPOUND>
CC[C@@H](Oc1ccc(C(=O)NS(=O)(=O)c2ccc(O[C@H]3CCN(C)C3)cc2)c(F)c1F)c1ccc(OCC2CC2)cn1

>  <pIC50>
> 7.00

$$$$
>  <COMPOUND>
CC(Oc1ccc(C(=O)NS(=O)(=O)CCN)cc1C(F)(F)F)c1cccc(Oc2ccccc2)c1 (racemic)

>  <pIC50>
6.30 to 7.00

$$$$
>  <COMPOUND>
CC(Oc1ccc(C(=O)NS(=O)(=O)c2ccc(CN)cc2)c(F)c1F)c1cccc(Oc2cccnc2)c1 (stereo not shown)

>  <pIC50>
> 7.00

$$$$

Incoming: Write down pIC50 measured for item CC(Oc1ccc(C(=O)NS(=O)(=O)c2ccc(CN)cc2)cc1C(F)(F)F)c1cccc(OC2CCCC2)c1 (stereo not shown)
Outgoing: < 6.30

----------
# STUDY_TARGET: hACSL5 (Homo sapiens (Human), UniProt Q9ULC5)
# EXPERIMENT_SUMMARY: Cell-based assay (CBA) with B12FA in hACSL5-transfected Expi293F / FlpIn TRex293 cells
# MEASUREMENT_CONTEXT: hACSL5-expressing cells
# Description: To assess the cell penetration and cellular activity of the compounds, a cell-based assay (CBA) was used to detect compound potency in living cells. […] A concentration-dependent, red-shifted fluorescence can be induced by the formation of BODIPY™ excimers in the oil droplets. […] FlpIn TRex293 cells transfected with hACSL5 plasmid were selected in culture medium containing 15 µg/ml Blasticidin and 150 µg/ml Hygromycin. […] The percentage of inhibition was calculated as: […]
# Sequence (Q9ULC5 whole entry): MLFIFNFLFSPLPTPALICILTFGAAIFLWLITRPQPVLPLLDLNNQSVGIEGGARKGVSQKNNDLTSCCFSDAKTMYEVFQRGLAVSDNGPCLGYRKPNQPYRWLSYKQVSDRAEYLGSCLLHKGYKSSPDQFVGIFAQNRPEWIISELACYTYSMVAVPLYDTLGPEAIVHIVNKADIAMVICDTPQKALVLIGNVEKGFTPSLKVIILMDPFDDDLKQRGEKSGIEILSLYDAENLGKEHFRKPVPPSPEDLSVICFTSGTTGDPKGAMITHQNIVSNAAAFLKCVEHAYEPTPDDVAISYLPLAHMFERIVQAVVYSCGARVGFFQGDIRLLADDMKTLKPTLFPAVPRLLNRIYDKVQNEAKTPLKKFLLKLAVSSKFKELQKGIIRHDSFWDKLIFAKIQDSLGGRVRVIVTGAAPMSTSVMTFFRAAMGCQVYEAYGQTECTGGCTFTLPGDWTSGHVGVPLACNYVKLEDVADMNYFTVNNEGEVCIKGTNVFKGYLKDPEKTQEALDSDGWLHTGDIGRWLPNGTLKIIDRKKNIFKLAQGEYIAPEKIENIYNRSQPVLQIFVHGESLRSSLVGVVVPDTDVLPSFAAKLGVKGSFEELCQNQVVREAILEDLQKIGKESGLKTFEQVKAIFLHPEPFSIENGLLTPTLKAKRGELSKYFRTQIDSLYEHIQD
ATTRIBUTE_MEASURED: IC50

Sample answers from the record:
>  <COMPOUND>
C[C@@H](Oc1ccc(C(=O)NS(=O)(=O)c2ccc(OCCN(C)C)cc2)c(F)c1F)c1ccc(Oc2ccccn2)cn1

>  <IC50>
100 to 500 nM

$$$$
>  <COMPOUND>
CC[C@@H](Oc1ccc(C(=O)NS(=O)(=O)N2CCC(OC3CCN(C)CC3)CC2)c(F)c1F)c1cc(Oc2ccccn2)ccn1

>  <IC50>
100 to 500 nM

$$$$
>  <COMPOUND>
CC[C@@H](Oc1ccc(C(=O)NS(=O)(=O)N2CC3CCC(C2)N3C)c(F)c1F)c1ccc(OCC2CC2)cn1

>  <IC50>
< 100 nM

$$$$
>  <COMPOUND>
CC[C@@H](Oc1ccc(C(=O)NS(=O)(=O)c2ccc(OCCN(C)C)cc2)c(F)c1F)c1ccc(OCCOC)cn1

>  <IC50>
> 500 nM

$$$$
>  <COMPOUND>
CC[C@@H](Oc1ccc(C(=O)NS(=O)(=O)c2ccc(OCCN3CC[C@H](F)C3)cc2)c(F)c1F)c1ccc(OCC2CC2)cn1

>  <IC50>
100 to 500 nM

$$$$

Incoming: Write down IC50 measured for item CC[C@@H](Oc1ccc(C(=O)NS(=O)(=O)c2ccc(OCCN(C)C)cc2)c(F)c1F)c1ccc(OC2CC(OC)C2)cn1 (stereo partly shown)
Outgoing: 100 to 500 nM

Incoming: Write down IC50 measured for item CC[C@@H](Oc1ccc(C(=O)NS(=O)(=O)N2CCN(CC(C)(C)O)CC2)c(F)c1F)c1ccc(Oc2ccccn2)cn1
Outgoing: < 100 nM

----------
# STUDY_TARGET: hACSL5 (Homo sapiens (Human), UniProt Q9ULC5)
# EXPERIMENT_SUMMARY: Human ACSL5 coupled enzyme Amplex Red assay
# Type: biochemical
# MEASUREMENT_CONTEXT: read-out: hACSL5 IC50
pIC50: −log10 of the molar value.
ATTRIBUTE_MEASURED: pIC50

Sample answers from the record:
>  <COMPOUND>
CC[C@@H](Oc1ccc(C(=O)NS(=O)(=O)N2CC(OC3CCN(C)CC3)C2)c(F)c1F)c1ccc(Oc2ccccn2)cn1

>  <STUDY_TARGET>
hACSL5 (Homo sapiens (Human), UniProt Q9ULC5)

>  <pIC50>
6.30 to 7.00

$$$$
>  <COMPOUND>
CC[C@@H](Oc1ccc(C(=O)NS(=O)(=O)c2ccc(OC3CCN(CC)CC3)cc2)c(F)c1F)c1ccc(OCC2CC2)cn1

>  <STUDY_TARGET>
hACSL5 (Homo sapiens (Human), UniProt Q9ULC5)

>  <pIC50>
> 7.00

$$$$
>  <COMPOUND>
CC[C@@H](Oc1ccc(C(=O)NS(=O)(=O)N2CCN(C)CC2)cc1C(F)(F)F)c1ccc(Oc2ccccn2)cn1

>  <STUDY_TARGET>
hACSL5 (Homo sapiens (Human), UniProt Q9ULC5)

>  <pIC50>
> 7.00

$$$$

Incoming: For hACSL5 (Homo sapiens (Human), UniProt Q9ULC5), give pIC50 of the listed compound: CC[C@@H](Oc1ccc(C(=O)NS(=O)(=O)N2CCN(CCCF)CC2)c(F)c1F)c1ccc(Oc2ccccn2)cn1
Outgoing: > 7.00

Incoming: For hACSL5 (Homo sapiens (Human), UniProt Q9ULC5), give pIC50 of the listed compound: CC[C@@H](Oc1ccc(C(=O)NS(=O)(=O)C2CCN(C)CC2)c(F)c1F)c1ccc(OCC2CC2)cn1
Outgoing: 6.30 to 7.00

Incoming: For hACSL5 (Homo sapiens (Human), UniProt Q9ULC5), give pIC50 of the listed compound: CC[C@@H](Oc1ccc(C(=O)NS(=O)(=O)N2CC3CC(C2)N3C)c(F)c1F)c1ccc(OCC2CC2)cn1
Outgoing: > 7.00

Incoming: For hACSL5 (Homo sapiens (Human), UniProt Q9ULC5), give pIC50 of the listed compound: CC[C@@H](Oc1ccc(C(=O)NS(=O)(=O)N2CCN(CC(C)(C)F)CC2)c(F)c1F)c1ccc(Oc2ccccn2)cn1
Outgoing: > 7.00

Incoming: For hACSL5 (Homo sapiens (Human), UniProt Q9ULC5), give pIC50 of the listed compound: CC[C@@H](Oc1ccc(C(=O)NS(=O)(=O)c2ccc(OCCN(C)C)cc2)c(F)c1F)c1ccc(OCCOC)cn1
Outgoing: 6.30 to 7.00
